Reported inhibition values for the following compounds.
TARGET OR TEST SYSTEM: Orexin/Hypocretin receptor type 1 (Homo sapiens) (UniProt O43613)
Sequence (O43613 whole entry, looked up): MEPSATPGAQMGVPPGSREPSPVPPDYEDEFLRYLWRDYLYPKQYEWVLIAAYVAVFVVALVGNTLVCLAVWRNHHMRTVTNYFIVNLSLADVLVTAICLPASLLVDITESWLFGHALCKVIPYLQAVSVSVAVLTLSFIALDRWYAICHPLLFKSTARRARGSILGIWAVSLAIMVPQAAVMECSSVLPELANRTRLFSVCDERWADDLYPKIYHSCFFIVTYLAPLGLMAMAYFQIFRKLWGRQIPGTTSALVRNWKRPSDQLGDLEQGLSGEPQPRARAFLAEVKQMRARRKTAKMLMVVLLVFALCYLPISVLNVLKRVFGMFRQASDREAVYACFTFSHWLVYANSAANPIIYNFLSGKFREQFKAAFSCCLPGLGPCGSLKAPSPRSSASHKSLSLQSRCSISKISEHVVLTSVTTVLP
EXPERIMENT SUMMARY: antagonists of human orexin 1 receptor (OX1R) (AID 485270);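 also: 0% = agonist challenge alone and 100% = reference antagonist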
APPLIED CONDITIONS: OX1R-expressing cells, FRET antagonist read-out; at 6.6 µM; hits give high values
About 5,800 (1.8%) of roughly 330,000 compounds were called active. For the sample, actives were picked, then their nearest neighbours and some compounds at random.
Numeric only. Scale: %

Answered cases to consult:
COMPOUND | REPORTED RESULT
Cc1ccc(CCNC(=O)C2CCN(S(=O)(=O)N3CCCC3)CC2)cc1 | 6.73
COc1ccc(-c2cc(C(=O)N(C)Cc3ccccc3)c3ccccc3n2)cc1 | 1.22
O=C(N[C@H]1C/C=C\C(c2ccc(F)cc2)N(Cc2ccccc2)C(=O)C1)OCC1c2ccccc2-c2ccccc21 (some centres undefined) | 14.6
O=C(CCNC(=O)c1ccccc1)Nc1nc2ccccc2s1 | 7.04
COc1ccc(-c2cc(C(=O)N(C)Cc3ccc(OC)c(OC)c3OC)c3ccccc3n2)cc1OC | 39.4
CC[C@]1(C(=O)OC)[C@H]2C(=O)N(Cc3ccccc3)C(=O)[C@H]2[C@H]2CN=C(SCc3ccc(Cl)cc3)N21 | 4.24
CN(C)CCNC(=O)c1[nH]nc2c1CCc1ccccc1-2 | 3.78
COc1ccc(CN(C)C(=O)c2cc(-c3ccc(C)cc3C)nc3ccccc23)c(OC)c1OC | 43.5

Now for another entry.
Task: State the recorded inhibition for this entry: "O=C(Nc1cccc(S(=O)(=O)N2CCOCC2)c1)C12CC3CC(CC(C3)C1)C2"
Output: 4.36

----------
TARGET OR TEST SYSTEM: Orexin/Hypocretin receptor type 1 (Homo sapiens) (UniProt O43613)
EXPERIMENT SUMMARY: antagonists of human orexin 1 receptor (OX1R) (AID 485270);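 also: 0% = agonist challenge alone and 100% = reference antagonist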
APPLIED CONDITIONS: OX1R-expressing cells, FRET antagonist read-out; at 6.6 µM
The whole screen tested about 330,000 compounds, of which about 5,800 (1.8%) were called active. Rule as the data show it: active = inhibition mostly above about 38% (no sharp cut-off); inactive = mostly below about 40%. The full list was thinned out, with actives kept by preference.
Write down the outcome that applies. Available outcomes: yes for active, no for inactive

COMPOUND | TARGET OR TEST SYSTEM | CLASS NAME
Cc1ccc(S(=O)(=O)N2CCN(C(=O)COC(=O)CNC(=O)c3ccc(C(C)(C)C)cc3)CC2)c(C)c1 | Orexin/Hypocretin receptor type 1 (Homo sapiens) (UniProt O43613) | no
COc1ccc(-c2nc(CS(=O)CC(=O)NCc3ccccn3)c(C)o2)cc1 (configuration not stated) | Orexin/Hypocretin receptor type 1 (Homo sapiens) (UniProt O43613) | no
O=C(NNC(=O)C1CCCC1)c1ccc(F)cc1 | Orexin/Hypocretin receptor type 1 (Homo sapiens) (UniProt O43613) | no
O=C(COC(=O)C1CCCO1)Nc1nc(-c2ccc(F)cc2)cs1 (configuration not stated) | Orexin/Hypocretin receptor type 1 (Homo sapiens) (UniProt O43613) | no

Task: GET /call?item= "C/C(N)=C(/C#N)C(=O)COC(=O)c1cc(-c2cccc(Br)c2)nc2ccccc12" returns the recorded outcome of this test.
Output: no

Task: GET /call?item= "CCCOc1ccc(Cn2c(O)cc(=O)[nH]c2=O)cc1" returns the recorded outcome of this test.
Output: no

Task: GET /call?item= "CCCOc1ccc(Cc2c(Cl)nc(SC)nc2NC)cc1" returns the recorded outcome of this test.
Output: yes

Task: GET /call?item= "CCCOc1ccc(Cc2c(O)nc(SC)[nH]c2=O)cc1C" returns the recorded outcome of this test.
Output: no

Task: GET /call?item= "O=C(CCCOc1ccccc1)NNC(=O)c1ccc(Cl)cc1" returns the recorded outcome of this test.
Output: no

Task: GET /call?item= "O=C(NCC#CCSc1nnc(-c2cccc3ccccc23)o1)c1cccs1" returns the recorded outcome of this test.
Output: no

Task: GET /call?item= "COc1ccc(-c2c(C)cc3oc(=O)cc(-c4ccccc4)c3c2C)cc1C=O" returns the recorded outcome of this test.
Output: no

The values you see were collected from PubChem BioAssay AID485270.
